Biological target: UniProt Q28614
Sequence (Q28614 whole entry): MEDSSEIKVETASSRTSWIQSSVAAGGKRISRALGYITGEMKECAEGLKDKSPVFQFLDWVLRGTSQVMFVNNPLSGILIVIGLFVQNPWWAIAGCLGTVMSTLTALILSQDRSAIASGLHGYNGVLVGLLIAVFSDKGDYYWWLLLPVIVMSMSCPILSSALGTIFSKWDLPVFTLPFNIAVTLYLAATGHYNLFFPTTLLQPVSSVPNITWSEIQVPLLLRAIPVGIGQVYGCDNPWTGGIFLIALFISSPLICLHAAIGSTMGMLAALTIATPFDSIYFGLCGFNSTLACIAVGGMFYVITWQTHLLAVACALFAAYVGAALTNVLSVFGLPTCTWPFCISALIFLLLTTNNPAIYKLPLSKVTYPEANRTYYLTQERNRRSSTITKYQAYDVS
Test: cell-based
Settings: 150 mM analogue; 14C-urea 1 mM
Entries and their inhibition of urea transport by urea analogues
observation-type: inhibition of urea transport by urea analogues (%)

CNC(=O)NC [1,3 dimethylurea, 1,3-dimethylurea] :: 65
NC(N)=S [Thiourea, thiourea] :: 38
CNC(N)=O [N-methylurea] :: 38

Source of measurements: patent US5441875A
